# System Name: UniProt:P08183
# Sequence (P08183 whole entry): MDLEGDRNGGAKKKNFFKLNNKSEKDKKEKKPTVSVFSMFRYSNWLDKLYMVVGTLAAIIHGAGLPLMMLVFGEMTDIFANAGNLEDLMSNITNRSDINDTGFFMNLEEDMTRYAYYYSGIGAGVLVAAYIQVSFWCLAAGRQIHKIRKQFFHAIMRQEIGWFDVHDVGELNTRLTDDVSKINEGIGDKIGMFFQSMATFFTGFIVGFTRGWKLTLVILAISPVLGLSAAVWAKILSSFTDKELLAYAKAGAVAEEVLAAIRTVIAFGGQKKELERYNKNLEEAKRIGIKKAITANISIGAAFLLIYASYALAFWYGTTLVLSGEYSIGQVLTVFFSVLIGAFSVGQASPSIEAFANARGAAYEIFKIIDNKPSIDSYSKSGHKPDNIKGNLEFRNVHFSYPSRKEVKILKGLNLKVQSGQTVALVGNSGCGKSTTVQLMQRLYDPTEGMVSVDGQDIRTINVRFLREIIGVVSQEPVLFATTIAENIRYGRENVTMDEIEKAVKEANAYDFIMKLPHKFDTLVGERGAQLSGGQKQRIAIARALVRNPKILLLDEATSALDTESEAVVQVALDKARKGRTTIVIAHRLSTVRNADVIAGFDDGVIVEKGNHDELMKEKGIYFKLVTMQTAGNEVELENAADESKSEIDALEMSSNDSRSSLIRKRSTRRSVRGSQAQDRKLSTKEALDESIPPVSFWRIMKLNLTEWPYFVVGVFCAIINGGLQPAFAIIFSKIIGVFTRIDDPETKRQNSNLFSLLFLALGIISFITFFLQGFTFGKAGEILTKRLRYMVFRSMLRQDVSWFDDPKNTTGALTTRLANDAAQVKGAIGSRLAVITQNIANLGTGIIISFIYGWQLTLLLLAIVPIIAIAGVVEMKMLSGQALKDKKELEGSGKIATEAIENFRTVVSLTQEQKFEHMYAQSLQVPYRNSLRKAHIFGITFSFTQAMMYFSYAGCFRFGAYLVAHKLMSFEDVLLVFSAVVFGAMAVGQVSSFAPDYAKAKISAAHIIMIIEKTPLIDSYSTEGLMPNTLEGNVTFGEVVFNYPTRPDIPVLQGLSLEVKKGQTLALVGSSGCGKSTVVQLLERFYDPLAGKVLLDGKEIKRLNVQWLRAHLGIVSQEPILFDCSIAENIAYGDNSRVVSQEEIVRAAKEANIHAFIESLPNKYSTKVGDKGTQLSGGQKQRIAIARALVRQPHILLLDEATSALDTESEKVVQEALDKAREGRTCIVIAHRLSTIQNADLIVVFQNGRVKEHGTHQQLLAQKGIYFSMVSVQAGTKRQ
# Test Protocol: Inhibition of Pgp in multidrug-resistant human 2780AD cells assessed as calcein accumulation at 25 ug/mL relative to control
# Type: cell-based
# Design: scale not given: the % may be the effect or the level left
# Run Parameters: a2780 adr
Assay Readout: Activity (%)

>>> number("C=C1[C@@H](OC(C)=O)C[C@H](OC(=O)/C=C/c2ccccc2)[C@@]2(C)C[C@H](OC(C)=O)C3=C(C)C[C@H](OC(=O)C(C)C(C)O)[C@@H]([C@@H](OC(C)=O)[C@H]12)C3(C)C (some centres undefined)")
130
>>> number("C=C1[C@@H](OC(C)=O)CC[C@@]2(C)C[C@H](OC(C)=O)C3=C(C)C[C@H](OC(=O)CCC)[C@@H]([C@@H](OC(C)=O)[C@H]12)C3(C)C")
114
>>> number("C=C1[C@@H](OC(C)=O)CC[C@@]2(C)[C@@H](O)[C@H](OC(C)=O)C3=C(C)C[C@H](OC(C)=O)[C@@H]([C@@H](OC(C)=O)[C@H]12)C3(C)C")
110
>>> number("C=C1[C@@H](OC(C)=O)CC[C@@]2(C)C[C@H](OC(=O)/C=C/c3ccccc3)C3=C(C)C[C@H](O)[C@@H]([C@@H](OC(C)=O)[C@H]12)C3(C)C")
113
